Method: HILIC, Waters ACQUITY UPLC BEH Amide, 100 × 2.1 mm, 1.7 µm; A: water + 0.125% formic acid + 10 mM ammonium formate; B: 5% water + 95% acetonitrile + 0.125% formic acid + 10 mM ammonium formate; gradient (min/%B) 0/100 2/100 7.7/70 9.5/40 10.25/30 12.75/100 17/100
Condition Set: stereoisomer not certain
Parameter class (string): assigned from measured LC retention time. Ranges: I (below 3 min), II (3 min to below 9 min), III (9 min or more)

Which bin, given its LC retention time, does COc1ccc2c3c1OC1C(=O)CCC4(O)C(C2)N(C)CCC314 (centres undefined) occupy?
II

Which bin, given its LC retention time, does Nc1ncnc2c1ncn2C1CC(O)C(COP(=O)(O)O)O1 (centres undefined) [2'-Deoxyadenosine-5'-monophosphate] occupy?
II

Which bin, given its LC retention time, does NC(CO)C(=O)NC(CCC(=O)O)C(=O)O (centres undefined) occupy?
III

Which bin, given its LC retention time, does Cc1ccc(O)c(C(CCN(C(C)C)C(C)C)c2ccccc2)c1 (centres undefined) occupy?
I

Which bin, given its LC retention time, does O=C(O)CCNC(=O)c1ccc(N=Nc2ccc(O)c(C(=O)O)c2)cc1 [Balsalazide] occupy?
II

Which bin, given its LC retention time, does N#CC(O)c1ccc(O)cc1 (centres undefined) [4-Hydroxymandelonitrile] occupy?
I
